biological target: human recombinant COX-2 (Homo sapiens); assay: In vitro COX-2 inhibitory assay (colorimetric Cayman kit)
assay-endpoint: IC50 (nM)

A: CN1c2ccccc2C(=O)N(NC(=O)Cc2c[nH]c3ccccc23)C1c1ccc(Cl)cc1 (centres unmarked)
B: CN1c2ccccc2C(=O)N(NC(=O)Cc2c[nH]c3ccccc23)C1c1ccc([N+](=O)[O-])cc1 (centres unmarked)
QUERY: Given A and B , report the one with the higher recorded IC50. Give the label of your selection.
RESULT: B
(B: 70 nM, A: 40 nM)

A: COc1ccc(C2N(NC(=O)Cc3c[nH]c4ccccc34)C(=O)c3ccccc3N2C)cc1 (centres unmarked)
B: CC(C)Cc1ccc(C(C)C(=O)NN2C(=O)c3ccccc3N(C)C2c2ccccc2)cc1 (centres unmarked)
QUERY: # min-compare on IC50 between A and B Give the label of your selection.
RESULT: A

* * *

Listed next: entries and their corresponding Number of rats with ulcer.
tested on: stomach ulceration in rats; test: Gastric acute ulcerogenic activity; settings: rat, n = 5; also: test concentration or dose not given here
Lab note: jot the number down without any unit.

// known answers, use as guide
# compound, assay-target, value-reported
data = [
    ("CC(C)Cc1ccc(C(C)C(=O)NN2C(=O)c3ccccc3N(C)C2c2ccc([N+](=O)[O-])cc2)cc1 (centres unmarked)", "stomach ulceration in rats", 3),
    ("O=C(CSc1nc2ccccc2c(=O)n1NC(=O)Cc1ccccc1)NNC(=O)c1ccccc1 [14c]", "stomach ulceration in rats", 2),
    ("NNC(=O)CSc1nc2ccccc2c(=O)n1NC(=O)Cc1ccccc1 [13b]", "stomach ulceration in rats", 2),
    ("CN1c2ccccc2C(=O)N(NC(=O)Cc2c[nH]c3ccccc23)C1c1ccc([N+](=O)[O-])cc1 (centres unmarked)", "stomach ulceration in rats", 1),
]

// below: Number of rats with ulcer requested for another compound
Record CN1c2ccccc2C(=O)N(NC(=O)Cc2c[nH]c3ccccc23)C1c1ccc(Cl)cc1 (centres unmarked) , field Number of rats with ulcer: 3

* * *

target: human recombinant COX-2 (Homo sapiens, UniProt P35354); test: In vitro COX-2 inhibitory assay (colorimetric Cayman kit); details: COX-1 IC50/COX-2 IC50
Sequence (P35354 18-604): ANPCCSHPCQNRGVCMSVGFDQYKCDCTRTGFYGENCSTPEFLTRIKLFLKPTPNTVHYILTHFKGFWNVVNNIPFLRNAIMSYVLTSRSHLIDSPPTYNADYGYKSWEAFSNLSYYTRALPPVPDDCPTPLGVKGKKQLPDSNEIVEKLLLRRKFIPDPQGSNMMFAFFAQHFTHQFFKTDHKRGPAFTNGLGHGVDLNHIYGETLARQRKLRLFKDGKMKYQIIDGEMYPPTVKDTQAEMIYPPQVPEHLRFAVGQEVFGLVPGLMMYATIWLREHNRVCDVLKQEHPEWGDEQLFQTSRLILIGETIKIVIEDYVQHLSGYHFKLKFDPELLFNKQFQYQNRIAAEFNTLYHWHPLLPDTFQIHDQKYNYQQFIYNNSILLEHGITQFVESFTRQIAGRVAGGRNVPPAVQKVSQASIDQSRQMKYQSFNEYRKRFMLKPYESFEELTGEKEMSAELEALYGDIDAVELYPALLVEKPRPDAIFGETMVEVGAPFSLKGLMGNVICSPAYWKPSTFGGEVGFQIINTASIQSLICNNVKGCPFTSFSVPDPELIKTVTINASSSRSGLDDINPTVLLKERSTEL
assay-endpoint: Selectivity Index (SI)

# molecule, Selectivity Index (SI)
rows = [
    ("O=C(CSc1nc2ccccc2c(=O)n1NC(=O)c1ccccc1)NNC(=O)c1ccccc1 [14a]", 362.00),
    ("NNC(=O)CSc1nc2ccccc2c(=O)n1NC(=O)Cc1ccccc1 [13b]", 373.77),
    ("NNC(=O)CSc1nc2ccccc2c(=O)n1NC(=O)c1ccccc1 [13a]", 254.75),
    ("COc1ccc(C2N(NC(=O)C(C)c3ccc(CC(C)C)cc3)C(=O)c3ccccc3N2C)cc1 (centres unmarked)", 359.25),
    ("O=C(CSc1nc2ccccc2c(=O)n1NC(=O)c1ccccc1)NNC(=O)c1ccc(Cl)cc1 [14b]", 324.5),
    ("COc1ccc(C2N(NC(=O)Cc3c[nH]c4ccccc34)C(=O)c3ccccc3N2C)cc1 (centres unmarked)", 373.67),
    ("CC(C)Cc1ccc(C(C)C(=O)NN2C(=O)c3ccccc3N(C)C2c2ccc([N+](=O)[O-])cc2)cc1 (centres unmarked)", 398.11),
    ("CC(C)Cc1ccc(C(C)C(=O)NN2C(=O)c3ccccc3N(C)C2c2ccc(F)cc2)cc1 (centres unmarked)", 296.25),
]
